Parameter: IC50. Scope: all listed entries.
TARGET_ENTITY: human sst1 (Homo sapiens)
Sequence (P30872 whole entry): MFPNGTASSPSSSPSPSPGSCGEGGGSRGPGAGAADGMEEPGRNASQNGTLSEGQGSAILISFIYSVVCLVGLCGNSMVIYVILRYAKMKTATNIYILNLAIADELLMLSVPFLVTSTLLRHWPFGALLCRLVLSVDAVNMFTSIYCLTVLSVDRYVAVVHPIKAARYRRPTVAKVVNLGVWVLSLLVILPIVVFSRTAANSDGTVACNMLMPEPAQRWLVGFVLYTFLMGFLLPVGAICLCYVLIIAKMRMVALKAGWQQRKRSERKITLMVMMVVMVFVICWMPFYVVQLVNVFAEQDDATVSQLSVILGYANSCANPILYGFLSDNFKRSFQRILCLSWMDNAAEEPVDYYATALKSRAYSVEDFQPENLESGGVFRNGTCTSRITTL
Bridge positions count the residues as written; N and C are the ends. Square brackets hold non-standard residues; d marks the D form. Peptide text beside a SMILES is read from it. * marks the point of attachment. DOTA = O=C(O)CN1CCN(CC(=O)O)CCN(CC(=O)*)CCN(CC(=O)O)CC1; dDab = NCC[C@@H](N)C(=O)O; GABA = NCCCC(=O)O
# number only, unit nM dropped from output

Solved entries (count: 2):
C[C@@H](O)[C@@H]1NC(=O)[C@H](CCCCN)NC(=O)[C@@H](Cc2c[nH]c3ccccc23)NC(=O)[C@H](Cc2ccccc2)NC(=O)[C@H](Cc2ccccc2)NC(=O)[C@H](CC(N)=O)NC(=O)CCCNC(=O)[C@H](Cc2ccccc2)NC1=O [minisomatostatin, reference compound] (cyclo(FF[dW]KTF[GABA]N)) : 172
C[C@@H](O)[C@@H]1NC(=O)[C@H](CCCCN)NC(=O)[C@@H](Cc2c[nH]c3ccccc23)NC(=O)[C@H](Cc2ccc(O)cc2)NC(=O)[C@H](Cc2ccccc2)NC(=O)[C@H](CCCNC(=N)N)NC(=O)CCCNC(=O)[C@H](Cc2ccccc2)NC1=O [A with X4 is Tyr and X1 is GABA] (cyclo(F[GABA]RFY[dW]KT); ring closure inferred) : 10.5

Proceed to the following item.
Look at this compound and give its reported IC50. C[C@@H](O)[C@@H]1NC(=O)[C@H](CCCCN)NC(=O)[C@@H](Cc2c[nH]c3ccccc23)NC(=O)[C@H](Cc2ccccc2)NC(=O)[C@H](Cc2ccccc2)NC(=O)[C@H](CCCNC(=N)N)NC(=O)[C@H](NC(=O)CN2CCN(CC(=O)O)CCN(CC(=O)O)CCN(CC(=O)O)CC2)CCNC(=O)[C@H](Cc2ccccc2)NC1=O [A, Z = DOTA] ({DOTA}-[dDab]RFF[dW]KTF; lactam 1-C)
7.6

----------
TARGET_ENTITY: human sst4 (Homo sapiens)
Sequence (P31391 whole entry): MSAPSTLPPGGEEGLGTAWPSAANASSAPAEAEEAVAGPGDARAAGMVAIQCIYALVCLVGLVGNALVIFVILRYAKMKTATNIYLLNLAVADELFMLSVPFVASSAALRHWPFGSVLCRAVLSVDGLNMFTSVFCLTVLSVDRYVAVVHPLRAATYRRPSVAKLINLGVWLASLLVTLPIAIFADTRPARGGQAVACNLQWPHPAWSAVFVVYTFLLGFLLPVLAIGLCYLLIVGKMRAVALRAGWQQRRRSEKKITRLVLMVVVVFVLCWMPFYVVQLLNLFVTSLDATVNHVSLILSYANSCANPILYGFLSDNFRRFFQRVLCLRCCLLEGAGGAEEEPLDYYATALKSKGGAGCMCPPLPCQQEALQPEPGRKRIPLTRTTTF
Square brackets hold non-standard residues; d marks the D form. Peptide text beside a SMILES is read from it. GABA = NCCCC(=O)O
MEASUREMENT_KIND: IC50
The answer consists of two parts: a number and, after it, its unit.

Look at this molecule and give its reported IC50. C[C@@H](O)[C@@H]1NC(=O)[C@H](CCCCN)NC(=O)[C@@H](Cc2c[nH]c3ccccc23)NC(=O)[C@H](Cc2ccc(O)cc2)NC(=O)[C@H](Cc2ccccc2)NC(=O)[C@H](CCCNC(=N)N)NC(=O)CCCNC(=O)[C@H](Cc2ccccc2)NC1=O [A with X4 is Tyr and X1 is GABA] (cyclo(F[GABA]RFY[dW]KT); ring closure inferred)
0.68 nM

----------
Bridge positions count the residues as written; N and C are the ends. Square brackets hold non-standard residues; d marks the D form. Peptide text beside a SMILES is read from it. * marks the point of attachment. DOTA = O=C(O)CN1CCN(CC(=O)O)CCN(CC(=O)*)CCN(CC(=O)O)CC1; dDab = NCC[C@@H](N)C(=O)O; GABA = NCCCC(=O)O
System: human sst3 (Homo sapiens, UniProt P32745) | Read-out: pIC50
Sequence (P32745 whole entry): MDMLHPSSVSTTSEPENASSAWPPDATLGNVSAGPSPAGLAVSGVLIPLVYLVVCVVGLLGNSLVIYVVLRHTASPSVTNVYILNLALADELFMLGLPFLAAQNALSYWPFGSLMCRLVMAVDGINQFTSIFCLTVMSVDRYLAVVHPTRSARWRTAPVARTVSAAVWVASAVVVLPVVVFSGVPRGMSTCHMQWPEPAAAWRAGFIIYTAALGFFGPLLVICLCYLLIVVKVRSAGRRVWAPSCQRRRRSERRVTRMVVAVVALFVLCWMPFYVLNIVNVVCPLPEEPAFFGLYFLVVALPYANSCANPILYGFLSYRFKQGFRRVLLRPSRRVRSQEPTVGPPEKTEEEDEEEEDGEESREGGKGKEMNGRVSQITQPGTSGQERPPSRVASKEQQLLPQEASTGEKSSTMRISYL
Lab note — pIC50 values are minus log10 of concentrations in M.

Solved entries (count: 3):
C[C@@H](O)[C@@H]1NC(=O)[C@H](CCCCN)NC(=O)[C@@H](Cc2c[nH]c3ccccc23)NC(=O)[C@H](Cc2ccccc2)NC(=O)[C@H](Cc2ccccc2)NC(=O)[C@H](CC(N)=O)NC(=O)CCCNC(=O)[C@H](Cc2ccccc2)NC1=O [minisomatostatin, reference compound] (cyclo(FF[dW]KTF[GABA]N)) : 8.49
C[C@@H](O)[C@@H]1NC(=O)[C@H](CCCCN)NC(=O)[C@@H](Cc2c[nH]c3ccccc23)NC(=O)[C@H](Cc2ccc(O)cc2)NC(=O)[C@H](Cc2ccccc2)NC(=O)[C@H](CCCNC(=N)N)NC(=O)CCCNC(=O)[C@H](Cc2ccccc2)NC1=O [A with X4 is Tyr and X1 is GABA] (cyclo(F[GABA]RFY[dW]KT); ring closure inferred) : 8.77
C[C@@H](O)[C@@H]1NC(=O)[C@H](CCCCN)NC(=O)[C@@H](Cc2c[nH]c3ccccc23)NC(=O)[C@H](Cc2ccccc2)NC(=O)[C@H](Cc2ccccc2)NC(=O)[C@H](CCCNC(=N)N)NC(=O)[C@H](NC(=O)CN2CCN(CC(=O)O)CCN(CC(=O)O)CCN(CC(=O)O)CC2)CCNC(=O)[C@H](Cc2ccccc2)NC1=O [A, Z = DOTA] ({DOTA}-[dDab]RFF[dW]KTF; lactam 1-C) : 8.80

Proceed to the following item.
Look at this compound and give its reported pIC50. C[C@@H](O)[C@@H]1NC(=O)[C@H](CCCCN)NC(=O)[C@@H](Cc2c[nH]c3ccccc23)NC(=O)[C@H](Cc2ccc(O)cc2)NC(=O)[C@H](Cc2ccccc2)NC(=O)[C@H](CCCNC(=N)N)NC(=O)[C@H](N)CCNC(=O)[C@H](Cc2ccccc2)NC1=O [A with X4 is Tyr] (H-[dDab]RFY[dW]KTF; lactam 1-C)
8.70
